For each record, write down the corresponding koff.
assay_system: human PD-L1/His fusion protein (human, UniProt Q9NZQ7 19-239)
Sequence (Q9NZQ7 19-239 limits assumed): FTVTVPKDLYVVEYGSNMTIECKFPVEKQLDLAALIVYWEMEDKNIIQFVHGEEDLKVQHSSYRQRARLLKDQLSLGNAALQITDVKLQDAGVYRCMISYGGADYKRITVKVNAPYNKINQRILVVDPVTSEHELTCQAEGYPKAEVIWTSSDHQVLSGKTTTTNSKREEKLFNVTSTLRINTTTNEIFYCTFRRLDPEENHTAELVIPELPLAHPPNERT
measurement_description: BLI Octet RED96, antibody on AHC sensor, single conc. PD-L1/His; test group 2
Kindly report the value followed by its unit.

Take a look at these entries with their results.
binder	koff
EM0005-mAb87c (antibody, human IgG1, kappa, V domains shown, Chimeric full-length IgG1; also called EM0005-87c) VH: EVQLQQSGPELVKPGASVKISCKASGYSFTDYYINWVKQSPEKSLEWIGETIPNTGGTTYNQKFKAKATLTVDKSSSTAYMQLKSLTSEDSAVYYCARYQSGSPFAYWGQGTPVTVSS VL: DIVMTQSQKFMSTTVGDRVSITCKASQNVGTAVAWYQQKPGQSPKLLIYSASNRYTGVPDRFTGSGSGTDFTLTISNMQSEDLADYFCQQHYSTPYTFGGGTKLEIKR	0.00104 s⁻¹
HuEM0005-90-7 (antibody, human IgG1, V domains shown) VH: EVQLVQSGAEVKKPGASVKVSCKTSGYTFTSHSINWVRQATGQGLEWMGYMYIGNGYTEYNEKFKGRVTMTSNTSISTAYMELSSLRSEDTAVYYCAKITPVVAPYVMDYWGQGTSVTVSS VL: DIQMTQSPSFLSASVGDRVTITCKASQDVGTAVAWYQQKPGKAPKLLIYWASTRHTGVPSRFSGSGSGTEFTLTISSLQPEDFATYYCQQYSSYPYTFGQGTKLEIK	0.00046 s⁻¹

Q: Look up and report measured koff for this entry: HuEM0005-90-10 (antibody, human IgG1, V domains shown) VH: EVQLVQSGAEVKKPGASVKVSCKASGYTFTSHSINWVRQATGQGLEWIGYMYIGNGYTEYNEKFKGRATLTSNTSISTAYMELSSLRSEDTAVYYCAKITPVVAPYVMDYWGQGTSVTVSS VL: DIVMTQSPSFLSASVGDRVTITCKASQDVGTAVAWYQQKPGKAPKLLIYWASTRHTGVPSRFSGSGSGTDFTLTISSLQPEDFATYYCQQYSSYPYTFGQGTKLEIK
Ans: 0.00031 s⁻¹
